target-desc: IDH1^R132C (Homo sapiens, UniProt O75874, R132C)
Sequence (O75874 whole entry R132C): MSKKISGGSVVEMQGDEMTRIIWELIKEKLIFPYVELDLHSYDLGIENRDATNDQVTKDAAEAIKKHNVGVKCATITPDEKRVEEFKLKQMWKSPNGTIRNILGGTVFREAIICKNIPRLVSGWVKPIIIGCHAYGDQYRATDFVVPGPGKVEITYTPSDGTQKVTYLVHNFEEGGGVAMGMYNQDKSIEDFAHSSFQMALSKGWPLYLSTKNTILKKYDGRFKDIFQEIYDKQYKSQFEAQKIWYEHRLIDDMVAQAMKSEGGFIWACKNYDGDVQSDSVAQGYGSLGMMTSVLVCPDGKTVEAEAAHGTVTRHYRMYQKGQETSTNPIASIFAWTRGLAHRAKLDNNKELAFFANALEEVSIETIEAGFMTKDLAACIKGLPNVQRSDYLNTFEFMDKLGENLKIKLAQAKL
protocol-details: NADPH depletion assay, IDH1 R132C
observation-type: pIC50
FYI, pIC50 means -log10 of a concentration in mol per litre.

INSERT INTO results (compound, observation_type, recorded_value) VALUES
  ('C[C@H](Nc1ncc2ccc(=O)n(CC(C)(C)C)c2n1)c1ccc(C(=O)NC2CC(F)(F)C2)cc1', 'pIC50', 5.84),
  ('C[C@H](Nc1ncc2ccc(=O)n(CC(C)(C)C)c2n1)c1ccc(S(C)(=O)=O)cc1', 'pIC50', 5.89),
  ('C/C=C/C(=O)N1CCN(C(CC)c2ccc([C@H](C)Nc3ncc4ccc(=O)n(C(C)C)c4n3)cc2)CC1 (stereo partly shown)', 'pIC50', 6.83),
  ('C[C@H](Nc1ncc2ccc(=O)n(CC(C)(C)C)c2n1)c1ccc(C(=O)NC2CCC(F)(F)CC2)cc1', 'pIC50', 6.45),
  ('C=CC(=O)N1CCN(Cc2ccc([C@H](C)Nc3ncc4ccc(=O)n(CC)c4n3)cc2)CC1', 'pIC50', 6.09),
  ('CC(C)[C@H](C)n1c(=O)ccc2cnc(N[C@@H](C)c3ccc(OC4CCN(C(=O)OCc5ccccc5)CC4)cc3)nc21', 'pIC50', 7.80);

Switching to the query record.
**Query** Dear colleague, I am looking for the recorded pIC50 of the following compound: C=CC(=O)N1CCN(Cc2ccc([C@H](C)Nc3ncc4ccc(=O)n(CCN=[N+]=[N-])c4n3)cc2)CC1
**Result** 7.21

---

target-desc: IDH1^R132H homodimer enzyme (Homo sapiens, UniProt O75874, R132H)
Sequence (O75874 whole entry R132H): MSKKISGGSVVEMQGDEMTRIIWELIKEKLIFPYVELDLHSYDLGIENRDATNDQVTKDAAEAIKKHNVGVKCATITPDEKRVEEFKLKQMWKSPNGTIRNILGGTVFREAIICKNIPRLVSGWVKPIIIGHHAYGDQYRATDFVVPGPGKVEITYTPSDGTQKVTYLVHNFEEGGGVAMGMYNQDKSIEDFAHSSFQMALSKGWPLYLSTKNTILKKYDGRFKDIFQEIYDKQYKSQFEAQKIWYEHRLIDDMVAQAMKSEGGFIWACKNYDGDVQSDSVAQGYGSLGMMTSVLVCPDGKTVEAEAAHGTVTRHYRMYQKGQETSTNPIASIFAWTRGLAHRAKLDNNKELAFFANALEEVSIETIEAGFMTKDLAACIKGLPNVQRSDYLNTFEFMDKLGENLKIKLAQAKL
protocol-details: NADPH depletion assay, IDH1 R132H
observation-type: log10 IC50 (log10 of the value in nM)
Form field - Quantity: IC50; Unit: nM; Scale: log10

INSERT INTO assay_data (molecule, target_desc, recorded_value) VALUES
  ('C=CC(=O)N1CCN(Cc2ccc([C@H](C)Nc3ncc4ccc(=O)n(C(C)C)c4n3)cc2)CC1 [cpd 184]', 'IDH1^R132H homodimer enzyme (Homo sapiens, UniProt O75874, R132H)', 2.10),
  ('C[C@H](Nc1ncc2ccc(=O)n(CC(C)(C)CO)c2n1)c1ccc(CN2CCC(F)(F)CC2)cc1 [cpd 55]', 'IDH1^R132H homodimer enzyme (Homo sapiens, UniProt O75874, R132H)', 2.14),
  ('C[C@H](Nc1ncc2ccc(=O)n(CC3CCCCC3)c2n1)c1ccc(CN2CCC(F)(F)CC2)cc1 [cpd 113]', 'IDH1^R132H homodimer enzyme (Homo sapiens, UniProt O75874, R132H)', 2.56),
  ('CC(C)C(=O)N1CCN(Cc2ccc([C@H](C)Nc3ncc4ccc(=O)n(CC(C)(C)C)c4n3)cc2)CC1 [cpd 157]', 'IDH1^R132H homodimer enzyme (Homo sapiens, UniProt O75874, R132H)', 2.21),
  ('CC(C)[C@H](C)n1c(=O)ccc2cnc(N[C@@H](C)c3ccc(CN4CCCC(F)(F)C4)cc3)nc21 [cpd 65]', 'IDH1^R132H homodimer enzyme (Homo sapiens, UniProt O75874, R132H)', 1.30);

**Query** Fill in the blank: the reported log10 IC50 of CC(C)[C@H](C)n1c(=O)ccc2cnc(N[C@@H](C)c3ccc(-c4ccnc(C(F)(F)F)c4)cn3)nc21 [cpd 196] is ____.
**Result** 2.98

**Query** Need log10 IC50, item CC[C@H](C)n1c(=O)ccc2cnc(N[C@@H](C)c3ccc(CN4CCCC(F)(F)C4)cc3)nc21 [cpd 62]
**Result** 1.91

**Query** I have this molecule here, C[C@H](Nc1ncc2ccc(=O)n(CC(C)(C)C)c2n1)c1ccc(CN2CCCC2)cc1 [cpd 111] , and I need its recorded log10 IC50.
**Result** 3.61

**Query** Field request: log10 IC50 | item: C[C@H](Nc1ncc2ccc(=O)n(CC(C)(C)C)c2n1)c1ccc(-c2ccncc2)cc1 [cpd 131]
**Result** 2.45

**Query** # get_value(readout='log10 IC50', item= C=CC(=O)N1CCN(C(CC2CC2)c2ccc([C@H](C)Nc3ncc4ccc(=O)n(CC)c4n3)cc2)CC1 (stereo partly shown) [cpd 219] )
**Result** 0.00

Provenance of the data: patent US12018023B2
